test system: Enterococcus faecium; assay: Antimicrobial activity against antibiotic-resistant Enterococcus faecium ATCC 700221 assessed as inhibition of visible growth measured after 20 to 24 hrs incubation by CLSI method; type: functional; conditions: time 20-24 hrs
Parameter: MIC. Scope: all listed entries.

Worked set:
O=C(O)c1ccc(-n2cc(CNc3cc(Cl)cc(Cl)c3)c(-c3ccc(F)cc3)n2)cc1 | 4 mg/L
Cc1ccc(NCc2cn(-c3ccc(C(=O)O)cc3)nc2-c2ccc(F)cc2)cc1Cl | 16 mg/L
O=C(O)c1ccc(-n2cc(CNc3ccccc3)c(-c3ccc(F)c(F)c3)n2)cc1 | 32 mg/L
O=C(O)c1ccc(-n2cc(CNc3ccc(Br)c(Cl)c3)c(-c3cccc(F)c3)n2)cc1 | 4 mg/L
CCCCCCCCCC(=O)N[C@@H](Cc1c[nH]c2ccccc12)C(=O)N[C@H](CC(N)=O)C(=O)N[C@@H](CC(=O)O)C(=O)N[C@@H]1C(=O)NCC(=O)N[C@@H](CCCN)C(=O)N[C@@H](CC(=O)O)C(=O)N[C@H](C)C(=O)N[C@@H](CC(=O)O)C(=O)NCC(=O)N[C@H](CO)C(=O)N[C@@H]([C@H](C)CC(=O)O)C(=O)N[C@@H](CC(=O)c2ccccc2N)C(=O)O[C@@H]1C | 16 mg/L
O=C(O)c1ccc(-n2cc(CNc3ccc(F)c(Cl)c3)c(-c3cccc(F)c3)n2)cc1 | 32 mg/L

Let us move to another entry and its MIC.
Check the records and state MIC for "O=C(O)c1ccc(-n2cc(CNc3cccc(F)c3)c(-c3ccc(F)cc3)n2)cc1"
> 32 mg/L

Value source: ChEMBL document CHEMBL5365500
